FYI, the data here is from ChEMBL document CHEMBL1275563.

Below is a list of entries, each paired with its recorded log10 MIC value.
- Tested on: Staphylococcus aureus
- experiment: Antimicrobial activity against Staphylococcus aureus RN1024
- Format: functional
Numbered stars: 1 amine (or outer) side, 2 acyl side, 3 side chain; on linkers, the order of the positions; unused ones are H or OH. Bridge positions count the residues as written; N and C are the ends. Square brackets hold non-standard residues; d marks the D form. Peptide text beside a SMILES is read from it. * marks the point of attachment. X1 = O=C1C[C@@H](C(=O)[*:2])N([*:1])C[C@H]1CS[C@@H]1CN2CCC1CC2; NMePhe(4-NMe2) = CN[C@@H](Cc1ccc(N(C)C)cc1)C(=O)O; Picolinoyl(3-OH) = O=C(c1ncccc1O)*; Phg = N[C@H](C(=O)O)c1ccccc1; dAbu = CC[C@@H](N)C(=O)O
Hey, these are logged values: log10 of MIC, µg/mL being the unit before logging.

The examples below pair each entry with its known result.
| compound | target entity | log10 MIC |
| --- | --- | --- |
| CC[C@H]1NC(=O)[C@@H](NC(=O)c2ncccc2O)[C@@H](C)OC(=O)[C@H](c2ccccc2)NC(=O)[C@@H]2CC(=O)[C@H](CS[C@@H]3CN4CCC3CC4)CN2C(=O)[C@H](Cc2ccc(N(C)C)cc2)N(C)C(=O)[C@@H]2CCCN2C1=O [QUINUPRISTIN] ({Picolinoyl(3-OH)}-T[dAbu]P[NMePhe(4-NMe2)][X1][Phg]; ester 1-C) | Staphylococcus aureus | 0.60 |
| C[C@H]1COc2c(N3CCN(C)CC3)c(F)cc3c(=O)c(C(=O)O)cn1c23.C[C@H]1COc2c(N3CCN(C)CC3)c(F)cc3c(=O)c(C(=O)O)cn1c23.O | Staphylococcus aureus | 1.20 |
| CCC[C@@H]1C[C@@H](C(=O)N[C@@H]([C@H]2O[C@H](SC)[C@H](O)[C@@H](O)[C@H]2O)[C@@H](C)O)N(C)C1 | Staphylococcus aureus | 0.90 |

In: Record request: log10 MIC value, item C=C[C@]1(C)C[C@@H](OC(=O)CS[C@@H]2C[C@H]3CC[C@@H](C2)N3C)[C@]2(C)[C@H](C)CC[C@]3(CCC(=O)[C@H]32)[C@@H](C)[C@@H]1O
Out: 0.30

In: Queued: C=C[C@]1(C)C[C@@H](OC(=O)CSCCN(CC)CC)[C@]2(C)[C@H](C)CC[C@]3(CCC(=O)[C@H]32)[C@@H](C)[C@@H]1O
Out: 1.20

In: Queued: CC[C@H]1OC(=O)[C@H](C)[C@@H](O[C@H]2C[C@@](C)(OC)[C@@H](O)[C@H](C)O2)[C@H](C)[C@@H](O[C@@H]2O[C@H](C)C[C@H](N(C)C)[C@H]2O)[C@](C)(O)C[C@@H](C)C(=O)[C@H](C)[C@@H](O)[C@]1(C)O
Out: -0.60

In: Queued: CCN(CC)CCS(=O)(=O)[C@@H]1CCN2C(=O)c3coc(n3)CC(=O)C[C@H](O)/C=C(C)/C=C/CNC(=O)/C=C/[C@@H](C)[C@@H](C(C)C)OC(=O)[C@@H]12
Out: 1.81

###

Below is a list of entries, each paired with its recorded log10 of MIC value.
- System: Staphylococcus aureus
- experiment: Antimicrobial activity against Staphylococcus aureus RN4220 harboring vgaAv positive plasmid CU1
Numbered stars: 1 amine (or outer) side, 2 acyl side, 3 side chain; on linkers, the order of the positions; unused ones are H or OH. Bridge positions count the residues as written; N and C are the ends. Square brackets hold non-standard residues; d marks the D form. Peptide text beside a SMILES is read from it. * marks the point of attachment. X1 = O=C1C[C@@H](C(=O)[*:2])N([*:1])C[C@H]1CS[C@@H]1CN2CCC1CC2; NMePhe(4-NMe2) = CN[C@@H](Cc1ccc(N(C)C)cc1)C(=O)O; Picolinoyl(3-OH) = O=C(c1ncccc1O)*; Phg = N[C@H](C(=O)O)c1ccccc1; dAbu = CC[C@@H](N)C(=O)O
Hey, these are logged values: log10 of MIC, µg/mL being the unit before logging.

The examples below pair each entry with its known result.
| molecule | attribute measured | recorded value |
| --- | --- | --- |
| CCN(CC)CCS(=O)(=O)[C@@H]1CCN2C(=O)c3coc(n3)CC(=O)C[C@H](O)/C=C(C)/C=C/CNC(=O)/C=C/[C@@H](C)[C@@H](C(C)C)OC(=O)[C@@H]12 | log10 of MIC | 1.81 |
| COc1cc(Cc2cnc(N)nc2N)cc(OC)c1OC | log10 of MIC | 0.30 |
| C=C[C@]1(C)C[C@@H](OC(=O)CS[C@@H]2C[C@H]3CC[C@@H](C2)N3C)[C@]2(C)[C@H](C)CC[C@]3(CCC(=O)[C@H]32)[C@@H](C)[C@@H]1O | log10 of MIC | 1.51 |

In: Which log10 of MIC is reported with Staphylococcus aureus for this entry: CC[C@H]1NC(=O)[C@@H](NC(=O)c2ncccc2O)[C@@H](C)OC(=O)[C@H](c2ccccc2)NC(=O)[C@@H]2CC(=O)[C@H](CS[C@@H]3CN4CCC3CC4)CN2C(=O)[C@H](Cc2ccc(N(C)C)cc2)N(C)C(=O)[C@@H]2CCCN2C1=O [QUINUPRISTIN] ({Picolinoyl(3-OH)}-T[dAbu]P[NMePhe(4-NMe2)][X1][Phg]; ester 1-C) ?
Out: 0.00

In: Queued: CC[C@H]1OC(=O)[C@H](C)[C@@H](O[C@H]2C[C@@](C)(OC)[C@@H](O)[C@H](C)O2)[C@H](C)[C@@H](O[C@@H]2O[C@H](C)C[C@H](N(C)C)[C@H]2O)[C@](C)(O)C[C@@H](C)C(=O)[C@H](C)[C@@H](O)[C@]1(C)O
Out: -0.90

In: Queued: CN(C)[C@@H]1C(O)=C(C(N)=O)C(=O)[C@@]2(O)C(O)=C3C(=O)c4c(O)cccc4[C@@](C)(O)[C@H]3C[C@@H]12
Out: -0.90

###

- Test system: Staphylococcus aureus
- experiment: Antimicrobial activity against Staphylococcus aureus RN1024
- Type: functional
Below is a list of entries, each paired with its recorded MIC value.
Give your result in µg/mL as a bare value.

The examples below pair each entry with its known result.
| compound | recorded value |
| --- | --- |
| CN(C)[C@@H]1C(O)=C(C(N)=O)C(=O)[C@@]2(O)C(O)=C3C(=O)c4c(O)cccc4[C@@](C)(O)[C@H]3C[C@@H]12 [TETRACYCLINE] | 64 |
| COc1cc(Cc2cnc(N)nc2N)cc(OC)c1OC [TRIMETHOPRIM] | 2 |
| O=C(N[C@H](CO)[C@H](O)c1ccc([N+](=O)[O-])cc1)C(Cl)Cl [CHLORAMPHENICOL] | 8 |

In: Record request: MIC value, item CCC[C@@H]1C[C@@H](C(=O)N[C@@H]([C@H]2O[C@H](SC)[C@H](O)[C@@H](O)[C@H]2O)[C@H](C)Cl)N(C)C1 [CLINDAMYCIN]
Out: 0.25

In: Queued: C/C(=C\C(=O)OCCCCCCCCC(=O)O)C[C@@H]1OC[C@H](C[C@@H]2O[C@H]2[C@@H](C)[C@H](C)O)[C@@H](O)[C@H]1O [MUPIROCIN]
Out: 0.25

###

- System: Staphylococcus aureus
- experiment: Antimicrobial activity against Staphylococcus aureus RN4220 harboring vgaAv positive plasmid CU1
attribute measured: MIC (µg/mL)
Give your result in µg/mL as a bare value.

The examples below pair each entry with its known result.
| compound smiles | MIC (µg/mL) |
| --- | --- |
| CC(=O)NC[C@H]1CN(c2ccc(N3CCOCC3)c(F)c2)C(=O)O1 | 1 |
| CCC[C@@H]1C[C@@H](C(=O)N[C@@H]([C@H]2O[C@H](SC)[C@H](O)[C@@H](O)[C@H]2O)[C@@H](C)O)N(C)C1 | 32 |
| C[C@H]1COc2c(N3CCN(C)CC3)c(F)cc3c(=O)c(C(=O)O)cn1c23.C[C@H]1COc2c(N3CCN(C)CC3)c(F)cc3c(=O)c(C(=O)O)cn1c23.O | 0.125 |

For the next question, use this compound.
In: Record request: MIC value, item CCC[C@@H]1C[C@@H](C(=O)N[C@@H]([C@H]2O[C@H](SC)[C@H](O)[C@@H](O)[C@H]2O)[C@H](C)Cl)N(C)C1
Out: 2
